biological target: human GPR119 (Homo sapiens, UniProt Q8TDV5); assay: Functional cellular assay measuring GPR119-mediated cAMP release (HTRF) in HEK-293 cells stably expressing recombinant human GPR119; conditions: cAMP response, cell line expressing human GPR119, 30 minutes at room temperature
Sequence (Q8TDV5 whole entry): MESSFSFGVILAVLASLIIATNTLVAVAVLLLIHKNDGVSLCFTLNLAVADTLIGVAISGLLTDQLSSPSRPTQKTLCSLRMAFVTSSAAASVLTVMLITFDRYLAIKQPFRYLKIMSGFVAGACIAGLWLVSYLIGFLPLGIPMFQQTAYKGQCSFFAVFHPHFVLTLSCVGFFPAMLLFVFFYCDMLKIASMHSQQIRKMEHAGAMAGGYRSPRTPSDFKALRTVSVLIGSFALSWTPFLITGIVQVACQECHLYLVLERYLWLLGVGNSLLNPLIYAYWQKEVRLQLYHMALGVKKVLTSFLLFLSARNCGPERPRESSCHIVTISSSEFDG
pEC50: −log10 of the molar value.
Values of pEC50 greater than or equal to 7 map to Criterion met; values below map to Criterion not met.

| Compound | Class name |
| --- | --- |
| CC1c2ccc(N3CC[C@@H](Oc4ccc(OCC5CC5)nc4)C3=O)cc2C(=O)N1CC(=O)N(C)C (stereo partly drawn) | Criterion not met |
| CN(C)C(=O)CN1Cc2ccc(N3CC[C@@H](Oc4ccc(Cl)nc4)C3=O)cc2C1=O | Criterion not met |
| CN(C)C(=O)CN1Cc2ccc(N3CC[C@@H](Oc4ccc(OCC5CC5)nc4)C3=O)cc2C1=O | Criterion met |
| CN(C)C(=O)CN1Cc2ccc(N3CC[C@@H](Oc4ccc(-c5ncc(F)s5)cc4)C3=O)cc2C1=O | Criterion met |
| CN(C)C(=O)CN1Cc2ccc(N3CC[C@@H](Oc4ccc(-c5cnccn5)cc4)C3=O)cc2C1=O | Criterion not met |
| CN(C)C(=O)CN1Cc2ccc(N3CC[C@@H](Oc4ccc(SC5CC5)nc4)C3=O)cc2C1=O | Criterion not met |
| O=C(O)CN1Cc2ccc(N3CC[C@@H](Oc4ccc(OCC(F)(F)F)nc4)C3=O)cc2C1=O | Criterion not met |
| CN(C)C(=O)Cn1c(=O)c2cc(N3CC[C@H](Oc4ccc(OCC5CC5)nc4)C3=O)ccc2n1C | Criterion not met |
| O=C(CN1Cc2ccc(N3CC[C@@H](Oc4ccc(OCC(F)(F)F)nc4)C3=O)cc2C1=O)N1CC(O)C1 | Criterion not met |
| O=C(CN1Cc2ccc(N3CC[C@@H](Oc4ccc(OCC5CC5)nc4)C3=O)cc2C1=O)N1CC(O)C1 | Criterion not met |
| CN(C)C(=O)CN1Cc2ccc(N3CC[C@@H](Oc4ccc(-n5cncn5)cc4)C3=O)cc2C1=O | Criterion not met |
